Listed variants paired with reported protein stability index
B1: KRT13 (parent)
chain: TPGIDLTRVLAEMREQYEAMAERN

- Variants of: B1
- assay_notes: protein stability index of a GFP-peptide fusion (GPS, HEK-293T) (PSI 1-6); higher = more stable;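 also: lentivirally expressed fusions sorted by FACS into six bins by GFP to DsRed ratio, PSI derived from sequencing read proportions per bin multiplied by bin number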
- details: c terminus: a fixed tail appended
parameter: protein stability index

In [3]: df
Out[3]:
    mutation_code  recorded_number
 0           R23M             3.27
 1           M13N             5.48
 2            D5G             1.58
 3           E15K             3.83
 4           A19N             4.28
 5           R14K             3.69
 6           E12I             2.72
 7            I4Q             3.72
 8           R14Y             3.61
 9           R23K             4.03
10            L6Y             3.37
11            L6S             5.29
12           L10V              4.8
13            G3A             3.35
14           M20K             4.81
15           Y17D              5.4
16            V9Y             3.01
17            L6R             4.84
18            P2F             2.79
19            L6N             5.14
20            T1K             3.85
21           A19T             4.16
22            P2A             4.17
23           E12N             3.87
24            L6Q             5.01
25            G3Q             3.23
26            P2D             3.69
27           M20Y             4.62
28            P2I             2.54
29           A21K             3.94
30           L10D             5.17
31            I4P             4.39
32           M13S              4.7
33           N24S             4.51
34            I4V              3.8
35           A11F              3.7
36           Q16V             3.82
37           N24W             4.55
38           E15G             3.82
39           R23C             4.43
40           L10K             4.14
41           Y17H             4.76
42            T7W             3.28
43           N24F                4
44           M13P              3.3
45            I4A             3.97
